target: T1, histidine-tagged human uPAR (Sino#10925-H08H) (human, UniProt Q03405 23-303); experiment: BLI (Octet), antibody on anti-human Fc sensor, uPAR from 50 nM;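 also: antibodies captured at 10 µg/mL on anti-human Fc biosensors, with uPAR as analyte in a twofold dilution series from 50 nM downward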
T1 construct: also called uPAR-His
Below is a list of entries, each paired with its recorded koff value.
Give your result in s⁻¹ as a bare value.

binder	unit_label	koff
M1-H3/L4 (antibody, V domains shown, also called humanized M1) VH: EVQLQQSGAEVKKPGATVKLSCTASGFNIKDEYINWVKQRPGQGLEWIGWIDPENGDTEYASKFQGRATITADTSTDTAYLELSSLRSEDTAVYYCTGGNYVGWFPYWGQGTLVTVSS VL: QIVLTQSPATLSASPGERVTMSCSASSSVSYMHWYQQKPGTSPRRWLYDTSKLASGVPARFSGSGSGTDYTLTISSLEPEDFATYYCQQWSSNPPYTFGQGTKLEIKT	s⁻¹	0.000893
M1-Chimeric (antibody, V domains shown) VH: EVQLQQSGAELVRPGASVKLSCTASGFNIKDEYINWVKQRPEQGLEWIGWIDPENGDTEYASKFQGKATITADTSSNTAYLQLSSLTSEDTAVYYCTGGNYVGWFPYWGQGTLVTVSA VL: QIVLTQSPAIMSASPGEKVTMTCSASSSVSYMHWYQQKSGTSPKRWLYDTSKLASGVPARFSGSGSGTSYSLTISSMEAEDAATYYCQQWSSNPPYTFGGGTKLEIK	s⁻¹	0.000701
M1-H3/L1 (antibody, V domains shown, also called humanized M1) VH: EVQLQQSGAEVKKPGATVKLSCTASGFNIKDEYINWVKQRPGQGLEWIGWIDPENGDTEYASKFQGRATITADTSTDTAYLELSSLRSEDTAVYYCTGGNYVGWFPYWGQGTLVTVSS VL: EIVLTQSPATLSLSPGERATLSCSASSSVSYMHWYQQKPGTSPRRWIYDTSKLASGVPARFSGSGSGTDFTLTISSLEPEDFAVYYCQQWSSNPPYTFGQGTKLEIKT	s⁻¹	0.00111
M1-H1/L4 (antibody, V domains shown, also called humanized M1) VH: EVQLVQSGAEVKKPGATVKISCTASGFNIKDEYINWVKQRPGKGLEWIGWIDPENGDTEYASKFQGRVTITADTSTDTAYLELSSLRSEDTAVYYCTGGNYVGWFPYWGQGTLVTVSS VL: QIVLTQSPATLSASPGERVTMSCSASSSVSYMHWYQQKPGTSPRRWLYDTSKLASGVPARFSGSGSGTDYTLTISSLEPEDFATYYCQQWSSNPPYTFGQGTKLEIKT	s⁻¹	0.000986

Let us move to another entry and its koff.
Data request: Please report the measured koff for M43-H4bm5/L4 (antibody, V domains shown, also called humanized M43) VH: QVQLQQSGAEVAKPGASVNLNCKASGYTFTSYGISWVRQRTGQGLEWIGEIYPRSGNTYYNEKFKGKATLTADKSTRTAYMELRSLTSEDTAVYFCAGKDYGSTYADYWGQGTTLTVSS VL: QIVLTQSPATLSASPGERVTMTCSASSSVSSRYLHWYQQKSGASPRLWIYGTSNLASGVPARFSGSGPGTSYTLTISSVEPEDAATYYCQQYHSDPLTFGQGTKLELKT
Data returned: 0.00666
